Source listed as paper PMC5931594.

study-system: SiaT (Proteus mirabilis, UniProt B4EZY7)
Construct: full-length, C-terminal HRV 3C site-GFP-8xHis tag cleaved by 3C protease; reconstituted in proteoliposomes for uptake
Sequence (B4EZY7 whole entry): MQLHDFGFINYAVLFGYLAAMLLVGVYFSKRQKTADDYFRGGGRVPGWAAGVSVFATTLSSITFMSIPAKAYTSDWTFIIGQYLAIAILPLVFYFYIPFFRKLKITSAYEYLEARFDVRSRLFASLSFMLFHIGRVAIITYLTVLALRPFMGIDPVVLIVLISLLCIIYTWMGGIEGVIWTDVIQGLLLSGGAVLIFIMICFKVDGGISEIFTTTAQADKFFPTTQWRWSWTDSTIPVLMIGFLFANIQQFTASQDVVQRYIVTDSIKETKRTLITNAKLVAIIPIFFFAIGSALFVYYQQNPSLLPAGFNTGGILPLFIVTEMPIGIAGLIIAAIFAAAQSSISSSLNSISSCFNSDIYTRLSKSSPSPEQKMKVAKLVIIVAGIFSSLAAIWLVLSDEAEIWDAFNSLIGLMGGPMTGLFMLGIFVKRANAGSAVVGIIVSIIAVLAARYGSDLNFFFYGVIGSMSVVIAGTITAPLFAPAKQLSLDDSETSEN
measurement-protocol: microscale thermophoresis, label-free
Assay type: binding
applied-conditions: PBS, 0.0174% DDM
pKd: −log10 of the molar value.

compound: O=C(O)C1(O)C[C@H](O)[C@@H](O)[C@H]([C@H](O)[C@H](O)CO)O1 (stereo partly shown)
pKd: < 2.00
